Source listed as ChEMBL document CHEMBL5360646.

# measurement_notes: Metabolic stability in rat lung S9 fraction assessed as half life at 1 uM and measured upto 60 mins in presence of NADPH by LC-MS/MS analysis
# Type: ADME, subcellular
# run_conditions: lung S9 fraction
reported_metric: half-life at 1 µM (min)

{"compound": "COc1ccc([C@H](Cc2c(Cl)c[n+]([O-])cc2Cl)OC(=O)c2ccc(CN[C@@H](C(=O)O[C@H]3CN4CCC3CC4)c3ccccc3)s2)cc1OC", "quantitative_result": 15}
{"compound": "COc1ccc([C@H](Cc2c(Cl)c[n+]([O-])cc2Cl)OC(=O)c2ccc(CNC(CO)(C(=O)O[C@H]3CN4CCC3CC4)c3ccccc3)s2)cc1OC (stereo in doubt; 3f)", "quantitative_result": 82}

---

Each entry below lists one item and its recorded pIC50 value.
# system_under_test: 3',5'-cyclic-AMP phosphodiesterase 4B (Homo sapiens, UniProt Q07343)
# Sequence (Q07343 whole entry): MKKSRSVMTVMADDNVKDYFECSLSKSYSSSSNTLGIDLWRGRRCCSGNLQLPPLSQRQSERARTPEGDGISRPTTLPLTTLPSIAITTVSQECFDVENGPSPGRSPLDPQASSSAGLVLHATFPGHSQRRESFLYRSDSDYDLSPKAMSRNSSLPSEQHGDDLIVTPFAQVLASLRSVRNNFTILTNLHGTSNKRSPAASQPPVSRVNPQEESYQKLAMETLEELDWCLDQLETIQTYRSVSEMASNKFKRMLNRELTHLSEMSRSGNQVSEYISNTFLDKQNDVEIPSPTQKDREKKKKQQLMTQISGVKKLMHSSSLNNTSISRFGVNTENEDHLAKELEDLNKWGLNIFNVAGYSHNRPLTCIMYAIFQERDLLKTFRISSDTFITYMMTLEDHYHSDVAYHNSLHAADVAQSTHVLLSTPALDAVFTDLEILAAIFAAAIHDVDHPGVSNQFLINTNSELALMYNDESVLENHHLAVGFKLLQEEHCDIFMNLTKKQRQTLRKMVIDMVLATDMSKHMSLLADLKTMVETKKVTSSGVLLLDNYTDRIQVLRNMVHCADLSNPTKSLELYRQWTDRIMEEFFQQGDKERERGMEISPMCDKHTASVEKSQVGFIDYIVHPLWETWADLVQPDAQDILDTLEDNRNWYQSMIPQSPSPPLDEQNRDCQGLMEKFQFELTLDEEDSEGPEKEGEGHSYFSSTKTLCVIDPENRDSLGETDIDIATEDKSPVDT
# measurement_notes: Inhibition of human recombinant PDE4B2 expressed in baculovirus expression system using cAMP as substrate incubated for 2 hrs by HTRF assay
pIC50: −log10 of the molar value.

{"compound": "COc1cc(C(=O)O[C@@H](Cc2c(Cl)c[n+]([O-])cc2Cl)c2ccc(OC)c(OC)c2)ccc1CNC(C(=O)O[C@H]1CN2CCC1CC2)c1ccccc1 (stereo partly specified)", "system_under_test": "3',5'-cyclic-AMP phosphodiesterase 4B (Homo sapiens, UniProt Q07343)", "pIC50": 8.30}
{"compound": "CS(=O)(=O)N1CCC[C@H]1C(=O)O[C@@H](Cc1c(Cl)c[n+]([O-])cc1Cl)c1ccc(OC(F)F)c(OCC2CC2)c1", "system_under_test": "3',5'-cyclic-AMP phosphodiesterase 4B (Homo sapiens, UniProt Q07343)", "pIC50": 9.30}
{"compound": "COc1ccc([C@H](Cc2c(Cl)c[n+]([O-])cc2Cl)OC(=O)c2ccc(CNC(C)(C(=O)O[C@H]3CN4CCC3CC4)c3ccccc3)s2)cc1OC (stereo in doubt; 1s)", "system_under_test": "3',5'-cyclic-AMP phosphodiesterase 4B (Homo sapiens, UniProt Q07343)", "pIC50": 8.90}
{"compound": "COCC(NCc1ccc(C(=O)O[C@@H](Cc2c(Cl)c[n+]([O-])cc2Cl)c2ccc(OC)c(OC)c2)s1)(C(=O)O[C@H]1CN2CCC1CC2)c1ccccc1 (stereo in doubt; 4s)", "system_under_test": "3',5'-cyclic-AMP phosphodiesterase 4B (Homo sapiens, UniProt Q07343)", "pIC50": 8.80}
{"compound": "COc1ccc([C@H](Cc2c(Cl)c[n+]([O-])cc2Cl)OC(=O)c2ccc(CNC(CO)(C(=O)O[C@H]3CN4CCC3CC4)c3ccccc3)c(OCC3CC3)c2)cc1OC (stereo in doubt; 9f)", "system_under_test": "3',5'-cyclic-AMP phosphodiesterase 4B (Homo sapiens, UniProt Q07343)", "pIC50": 9.30}
{"compound": "CCC(NCc1ccc(C(=O)O[C@@H](Cc2c(Cl)c[n+]([O-])cc2Cl)c2ccc(OC)c(OC)c2)s1)(C(=O)O[C@H]1CN2CCC1CC2)c1ccccc1 (stereo in doubt; 2s)", "system_under_test": "3',5'-cyclic-AMP phosphodiesterase 4B (Homo sapiens, UniProt Q07343)", "pIC50": 8.50}
{"compound": "COc1ccc([C@H](Cc2c(Cl)c[n+]([O-])cc2Cl)OC(=O)c2ccc(CNC(CO)(C(=O)O[C@H]3CN4CCC3CC4)c3ccccc3)c(OCC3CC3)c2)cc1OC (stereo in doubt; 9s)", "system_under_test": "3',5'-cyclic-AMP phosphodiesterase 4B (Homo sapiens, UniProt Q07343)", "pIC50": 9.10}
{"compound": "CCOc1cc([C@@H](Cc2c(Cl)c[n+]([O-])cc2Cl)OC(=O)c2ccc(CN[C@@](CO)(C(=O)O[C@H]3CN4CCC3CC4)c3ccccc3)s2)ccc1OC", "system_under_test": "3',5'-cyclic-AMP phosphodiesterase 4B (Homo sapiens, UniProt Q07343)", "pIC50": 8.20}
{"compound": "COc1ccc([C@H](Cc2c(Cl)c[n+]([O-])cc2Cl)OC(=O)c2ccc(CNC(C(=O)O[C@H]3CN4CCC3CC4)c3ccccc3)c(OCC3CC3)c2)cc1OC (stereo partly specified)", "system_under_test": "3',5'-cyclic-AMP phosphodiesterase 4B (Homo sapiens, UniProt Q07343)", "pIC50": 9.00}
{"compound": "COc1ccc([C@H](Cc2c(Cl)c[n+]([O-])cc2Cl)OC(=O)c2ccc(CNC(CO)(C(=O)O[C@H]3CN4CCC3CC4)c3ccccc3)s2)cc1OCC1CC1 (stereo in doubt; 11s)", "system_under_test": "3',5'-cyclic-AMP phosphodiesterase 4B (Homo sapiens, UniProt Q07343)", "pIC50": 8.90}
{"compound": "CCOc1cc([C@H](Cc2c(Cl)c[n+]([O-])cc2Cl)OC(=O)c2ccc(CN[C@@](CO)(C(=O)O[C@H]3CN4CCC3CC4)c3ccccc3)s2)ccc1OC", "system_under_test": "3',5'-cyclic-AMP phosphodiesterase 4B (Homo sapiens, UniProt Q07343)", "pIC50": 9.00}
